- ASSAY_SYSTEM: Human TRPC6 (Homo sapiens)
- Construct: expressed in transfected cells
- Sequence (Q9Y210 whole entry): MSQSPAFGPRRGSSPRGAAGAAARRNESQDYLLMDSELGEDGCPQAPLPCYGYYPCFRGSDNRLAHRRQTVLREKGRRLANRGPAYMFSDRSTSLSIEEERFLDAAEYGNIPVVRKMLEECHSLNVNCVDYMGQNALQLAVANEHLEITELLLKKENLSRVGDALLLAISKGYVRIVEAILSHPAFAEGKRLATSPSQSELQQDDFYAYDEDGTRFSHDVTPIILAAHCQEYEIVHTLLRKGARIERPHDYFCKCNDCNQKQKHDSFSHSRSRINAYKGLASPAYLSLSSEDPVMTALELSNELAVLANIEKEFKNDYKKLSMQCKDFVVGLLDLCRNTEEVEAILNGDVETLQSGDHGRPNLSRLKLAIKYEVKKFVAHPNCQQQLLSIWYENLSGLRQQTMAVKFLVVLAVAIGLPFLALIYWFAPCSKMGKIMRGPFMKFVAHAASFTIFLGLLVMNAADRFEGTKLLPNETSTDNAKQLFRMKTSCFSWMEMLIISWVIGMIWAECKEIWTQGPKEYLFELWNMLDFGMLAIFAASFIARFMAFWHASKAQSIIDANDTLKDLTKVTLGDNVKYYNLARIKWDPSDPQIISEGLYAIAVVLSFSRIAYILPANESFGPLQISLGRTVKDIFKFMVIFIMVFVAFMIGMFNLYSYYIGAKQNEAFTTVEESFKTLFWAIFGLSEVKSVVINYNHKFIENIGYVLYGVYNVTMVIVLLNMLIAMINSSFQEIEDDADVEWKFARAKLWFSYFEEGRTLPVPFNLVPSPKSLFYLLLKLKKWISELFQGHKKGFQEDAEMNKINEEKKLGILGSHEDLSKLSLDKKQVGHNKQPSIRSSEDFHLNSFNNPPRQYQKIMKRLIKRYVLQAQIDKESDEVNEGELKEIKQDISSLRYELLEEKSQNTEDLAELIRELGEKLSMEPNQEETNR
- ASSAY: Evaluation of TRPC6 channel inhibitory activity (1), FLIPR Calcium 5 Assay Kit, OAG stimulation (Compound Nos. 1-1293)
- Format: cell-based
- TEST_PARAMETERS: Human TRPC6 stably-expressing cells, OAG 30 μM, FLIPR Calcium 5 Assay Kit; read-out: Inhibitory activity (pIC50 class) (converted)

COMPOUND: Cc1cc(Oc2cc(C#N)ccc2-c2ccc(C(O)CN)cc2)cc(N2CCOCC2)n1 (centres unmarked)
ASSAY_SYSTEM: Human TRPC6 (Homo sapiens)
IC50: < 10 nM
//
COMPOUND: N#Cc1ccc(-c2ncc(CN)cn2)c(Oc2cc(N3CCCCC3)nnc2Cl)c1
ASSAY_SYSTEM: Human TRPC6 (Homo sapiens)
IC50: 10 to 1000 nM
//
COMPOUND: N#Cc1ccc(-c2ccc(CCN)cc2)c(Oc2cc(-c3ccccc3)no2)c1
ASSAY_SYSTEM: Human TRPC6 (Homo sapiens)
IC50: < 10 nM
//
COMPOUND: Cc1nc(Oc2cc(C#N)ccc2-c2ccc([C@H](O)CN)cn2)cc(N2CCOC(C)(C)C2)n1
ASSAY_SYSTEM: Human TRPC6 (Homo sapiens)
IC50: 10 to 1000 nM
//
COMPOUND: N#Cc1ccc(-c2ncc(CCN)cn2)c(Cn2ccnc2-c2ccccc2)c1
ASSAY_SYSTEM: Human TRPC6 (Homo sapiens)
IC50: > 1000 nM
//
COMPOUND: Cc1nn(CC(C)(C)C)cc1Oc1cc(C#N)ccc1-c1ncc(CCN)cn1
ASSAY_SYSTEM: Human TRPC6 (Homo sapiens)
IC50: < 10 nM
//
COMPOUND: Cn1nc(-c2ccccn2)cc1Cc1cc(C#N)ccc1-c1ncc(CN)cn1
ASSAY_SYSTEM: Human TRPC6 (Homo sapiens)
IC50: < 10 nM
//
COMPOUND: Cn1nc(N2CCOCC2)cc1C(=O)c1cc(C#N)ccc1-c1ncc(CCN)cn1
ASSAY_SYSTEM: Human TRPC6 (Homo sapiens)
IC50: < 10 nM
